Source of measurements: PubChem BioAssay (NCI)

Test system: TK-10 renal
Test: NCI tumour cell line growth inhibition, 48 h
Would you mind telling me the reported TGI of each entry?

Please give the documented TGI of O=C(O)CCSC(CC1(c2ccc(Cl)cc2)NC(=O)CCS1)c1ccccc1 (stereo unspecified)
36 µM

Please give the documented TGI of Nc1n[nH]c(=O)c2c1c(I)cn2C1OC(CO)C(O)C1O (stereo unspecified)
> 100 µM

Please give the documented TGI of `Cc1ccc(Cl)c2c(=O)c3ccc(N)cc3sc12`
> 100 µM

Please give the documented TGI of `CS(=O)(=O)c1ccc(-c2cc(-c3ccc(S(C)(=O)=O)cc3)[n+](-c3cc(-c4ccccc4)c([O-])c(-c4ccccc4)c3)c(-c3ccc(S(C)(=O)=O)cc3)c2)cc1`
> 100 µM

Please give the documented TGI of `COc1ccc(/C=C2\c3cc(OC)c(OC)cc3CCN2C(=O)c2ccccc2)cc1OC`
> 100 µM

Please give the documented TGI of `COc1ccc2c(C(=O)c3cn(CCN4CCOCC4)c4ccccc34)cccc2c1`
> 100 µM

----------
Test system: MDA-MB-435
Assay: NCI tumour cell line growth inhibition, 48 h
MEASUREMENT_NAME: TGI

Please give the documented TGI of `CCOC(=O)/C=C(\C(=O)OCC)n1ccc(=O)n(Cc2cn(CCCCOC(C)=O)nn2)c1=O`
18.1 µM

Please give the documented TGI of C=C1C(=O)OC2CC(C)C(C(O)CC(C)O)=CCC12 (centres undefined)
> 59.2 µM

Please give the documented TGI of CC(=O)OCC1OC(n2c(C)cc(C)c(C#N)c2=S)C(OC(C)=O)C(OC(C)=O)C1OC(C)=O (centres undefined)
> 100 µM

Please give the documented TGI of `COC1(OC)CCCc2c1no[n+]2[O-]`
> 100 µM

----------
Tested on: NCI-H460 lung
Assay: NCI tumour cell line growth inhibition, 48 h
MEASUREMENT_NAME: TGI

Please give the documented TGI of `C=CCN(C(=O)CNC(=O)C(F)(F)F)c1cc(OCc2ccccc2)c2c(c1)c(C)cn2S(=O)(=O)c1ccccc1`
> 100 µM

Please give the documented TGI of `CN(C)c1ccc(N=Nc2ccccn2)c(O)c1`
> 32.1 µM

Please give the documented TGI of `NCCCn1c2c(c3ccc([N+](=O)[O-])cc3c1=O)C(=O)c1ccccc1-2`
> 50 µM

Please give the documented TGI of `Cc1nn(C(=O)CC(=O)Nc2ccc(Cl)cc2)c(C)c1N=Nc1ccccc1C(=O)O`
> 100 µM
